Tested on: NCTC-2544
Experiment: Cytotoxicity against human IFN-gamma and histamine-stimulated NCTC-2544 cells assessed as reduction in cell viability at 10 uM by MTT assay
Format: cell-based
Conditions: nctc-2544, 10 µM
Measurement type: Activity

// solved cases for Activity follow
O=C(O)c1ccc(CN2C(=O)/C(=C/c3cccc(OCc4ccccc4)c3)SC2=S)cc1 Non-Toxic
O=C(O)c1ccc(CN2C(=O)/C(=C/c3cccc(Oc4ccccc4)c3)S/C2=N\c2ccc(F)cc2)cc1 Non-Toxic
O=C(O)c1ccc(CN2C(=O)/C(=C/c3ccc(OCCc4ccccc4)cc3)SC2=S)cc1 Toxic
O=C(O)c1ccc(CN2C(=O)/C(=C/c3ccc(OCc4ccccc4)cc3)SC2=S)cc1 Non-Toxic
O=C(O)c1ccc(CN2C(=O)/C(=C/c3ccc(Oc4ccccc4)cc3)SC2=S)cc1 Non-Toxic

Query (compound): O=C(O)c1ccc(CN2C(=O)/C(=C/c3cccc(Oc4ccccc4)c3)SC2=S)cc1 ; field requested: Activity
Non-Toxic

Query (compound): O=C(O)c1ccc(CN2C(=O)/C(=C/c3cccc(OCCc4ccccc4)c3)SC2=S)cc1 ; field requested: Activity
Toxic

---

Target: Tyrosine-protein phosphatase non-receptor type 1 (Homo sapiens) (UniProt P18031)
Sequence (whole entry): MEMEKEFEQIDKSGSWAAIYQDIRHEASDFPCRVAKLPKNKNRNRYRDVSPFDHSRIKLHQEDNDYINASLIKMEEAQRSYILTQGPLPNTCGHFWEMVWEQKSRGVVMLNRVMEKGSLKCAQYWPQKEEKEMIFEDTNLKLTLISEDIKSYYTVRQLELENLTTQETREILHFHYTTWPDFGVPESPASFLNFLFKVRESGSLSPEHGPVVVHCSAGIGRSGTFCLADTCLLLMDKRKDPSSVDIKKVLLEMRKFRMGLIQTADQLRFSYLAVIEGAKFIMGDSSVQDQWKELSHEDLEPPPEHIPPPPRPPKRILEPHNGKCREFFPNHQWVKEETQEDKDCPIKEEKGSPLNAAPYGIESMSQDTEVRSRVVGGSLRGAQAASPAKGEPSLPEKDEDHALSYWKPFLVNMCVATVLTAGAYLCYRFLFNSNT
Test: Inhibition of PTP1B in human HepG2 cells assessed as increase in phosphorylation of IRbeta at Tyr1162/1163 residues at 50 uM after 30 mins by Western blot method
Format: cell-based
Active and inactive are the calls of the source. No cut-off for these calls is given here.
Write down one outcome, taken from active, inactive

Please review the entries below; each comes with its answer.
O=C(O)c1ccc(CN2C(=O)/C(=C/c3ccc(OCc4ccccc4)cc3)S/C2=N\c2ccc(F)cc2)cc1 active
O=C(O)c1ccc(CN2C(=O)/C(=C/c3cccc(Oc4ccccc4)c3)SC2=S)cc1 inactive
O=C(O)c1ccc(CN2C(=O)/C(=C/c3cccc(OCCc4ccccc4)c3)SC2=S)cc1 inactive

Returns: the outcome recorded for O=C(O)c1ccc(CN2C(=O)/C(=C/c3ccc(OCCc4ccccc4)cc3)SC2=S)cc1 in this assay.
inactive

Returns: the outcome recorded for O=C(O)c1ccc(CN2C(=O)/C(=C/c3cccc(OCc4ccccc4)c3)S/C2=N\c2ccc(F)cc2)cc1 in this assay.
active

---

Target: Tyrosine-protein phosphatase non-receptor type 1 (Homo sapiens)
Assay: Competitive inhibition of full length recombinant human PTP1B assessed as enzyme-inhibitor complex using pNPP as substrate by double reciprocal plot method
Measurement type: Ki (µM)

O=C(O)c1ccc(CN2C(=O)/C(=C/c3cccc(Oc4ccccc4)c3)S/C2=N\c2ccc(F)cc2)cc1 4.4

I: O=C(O)c1ccc(CN2C(=O)/C(=C/c3ccc(Oc4ccccc4)cc3)S/C2=N\c2ccc(F)cc2)cc1
II: O=C(O)c1ccc(CN2C(=O)/C(=C/c3ccc(OCc4ccccc4)cc3)S/C2=N\c2ccc(F)cc2)cc1
Ki comparison. Which is larger, I or II ? Mark your answer with the label of the selected entry.
I
(I: 9.9 µM, II: 1.4 µM)
